Test: NCI Yeast Anticancer Drug Screen. Data for the mlh1 rad18 strain (AID 175)
Conditions: S. cerevisiae mlh1 rad18 strain growth inhibition; at 50.0 µM; hits give high values
The panel holds about 79,000 compounds, 15% with a hit somewhere; the sample as a whole holds those more often.
MEASURED_METRIC: growth inhibition (%)
Enter your answer as a number in %; do not include the unit.

Consider the worked cases shown below.
COMPOUND	UNITS_OF_MEASURE	MEASUREMENT
COc1cc(C=O)ccc1OC(C)=O	%	-24.3
CCCNC(C#N)c1ccc(C(C#N)NCCC)cc1 (stereo unspecified)	%	-7.8
Cc1ccc(S(=O)(=O)N(CCO)CC(C)O)cc1 (stereo unspecified)	%	-26.8
C=CC(C)(C)[C@@]12CC3C(=O)N[C@@H](Cc4ccccc4)C(=O)N3[C@@H]1N(C(C)=O)c1ccccc12 (stereo partly specified)	%	53.1

Query: Give a short answer stating reported growth inhibition for O=[N+]([O-])c1cc2c(cc1Cl)C1C(C3C2C2(Cl)C(Cl)=C(Cl)C3(Cl)C2(Cl)Cl)C2(Cl)C(Cl)=C(Cl)C1(Cl)C2(Cl)Cl (stereo unspecified) .
Result: 18

Query: Input CC(=O)Nc1cc2c(cc1Cl)-c1cc(Cl)c(Cl)cc1C2=O , output reported growth inhibition.
Result: -17.5
